Data provenance: patent US10538487B2

- tgt: NLRP3 inflammasome (Homo sapiens)
- Sequence (Q96P20 whole entry): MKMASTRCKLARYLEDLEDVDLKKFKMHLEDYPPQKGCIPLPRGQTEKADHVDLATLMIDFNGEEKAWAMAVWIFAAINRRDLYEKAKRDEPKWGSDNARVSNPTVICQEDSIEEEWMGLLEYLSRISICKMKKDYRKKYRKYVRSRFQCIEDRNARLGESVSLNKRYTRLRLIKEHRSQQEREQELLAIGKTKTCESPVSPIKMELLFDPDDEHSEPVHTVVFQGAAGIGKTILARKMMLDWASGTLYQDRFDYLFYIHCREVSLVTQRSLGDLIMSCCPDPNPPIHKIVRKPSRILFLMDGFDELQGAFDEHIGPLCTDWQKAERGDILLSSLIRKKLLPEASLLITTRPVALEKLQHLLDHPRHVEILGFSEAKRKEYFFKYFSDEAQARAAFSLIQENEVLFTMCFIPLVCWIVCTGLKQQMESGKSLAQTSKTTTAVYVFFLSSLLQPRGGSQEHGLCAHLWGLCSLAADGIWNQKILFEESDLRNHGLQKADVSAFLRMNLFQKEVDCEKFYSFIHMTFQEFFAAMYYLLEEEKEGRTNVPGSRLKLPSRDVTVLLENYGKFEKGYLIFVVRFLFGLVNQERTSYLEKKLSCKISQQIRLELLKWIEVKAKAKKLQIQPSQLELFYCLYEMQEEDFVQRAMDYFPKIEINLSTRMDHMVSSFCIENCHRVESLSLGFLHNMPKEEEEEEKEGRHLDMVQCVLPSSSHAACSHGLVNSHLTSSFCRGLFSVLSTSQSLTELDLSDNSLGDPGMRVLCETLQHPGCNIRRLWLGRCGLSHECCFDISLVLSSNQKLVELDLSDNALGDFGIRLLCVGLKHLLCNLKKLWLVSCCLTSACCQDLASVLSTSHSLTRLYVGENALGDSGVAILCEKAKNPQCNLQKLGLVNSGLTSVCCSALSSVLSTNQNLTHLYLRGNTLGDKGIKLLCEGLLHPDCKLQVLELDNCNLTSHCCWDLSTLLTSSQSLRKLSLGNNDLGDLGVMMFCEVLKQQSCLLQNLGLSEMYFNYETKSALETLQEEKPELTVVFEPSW
- test: Inhibition of IL-1β release, NLRP3 inflammasome activation assay in HMDM
- Assay type: cell-based
- cond: inhibition of IL-1β release, numeric bounds, read-out: Avg. IL-1β IC50 HMDM
pIC50: −log10 of the molar value.
Kindly supply the reported pIC50 values for the records listed here.

# returns recorded pIC50 (system: NLRP3 inflammasome (Homo sapiens)) for COc1ccc2c(c1)C(=O)N(CCc1ccc(S(N)(=O)=O)cc1)C(=O)C2(C)C [reference compound]
< 3.70

# returns recorded pIC50 (system: NLRP3 inflammasome (Homo sapiens)) for O=C(Nc1ccc(Cl)cc1)NS(=O)(=O)c1ccc2c(c1)CCC2
< 4.00

# returns recorded pIC50 (system: NLRP3 inflammasome (Homo sapiens)) for Cc1cc(C)nc(NC(=O)NS(=O)(=O)c2cc(C(C)(C)O)co2)n1
< 4.30

###

- test: Single dose pharmacokinetic study in mice (iv 4 mg/Kg, po 20 mg/Kg), plasma concentration post-dosing
- Format: in vivo, mouse
- cond: male, C57BL/6, mouse, plasma, iv, 4 mg/kg, mouse, IV 4 mg/Kg, 24.0 h post dosing, mean of 3 mice; read-out: Plasma concentration, IV Time 24.0 h, Mean IV
Kindly supply the reported concentration at 24 h values for the records listed here.
I only need the number, in ng/mL, no unit after it.

// concentration at 24 h lookup, key: CC(C)n1ccc(S(=O)(=O)NC(=O)Nc2c3c(cc4c2CCC4)CCC3)n1
134

// concentration at 24 h lookup, key: CC(C)(O)c1coc(S(=O)(=O)NC(=O)Nc2c3c(cc4c2CCC4)CCC3)c1 [MCC_000950_016, reference compound]
2.65

###

- test: Single dose pharmacokinetic study in mice (iv 4 mg/Kg, po 20 mg/Kg), plasma concentration post-dosing
- Type: in vivo, mouse
- cond: male, C57BL/6, mouse, plasma, iv, 4 mg/kg, mouse, IV 4 mg/Kg, individual mice M1-M3; read-out: Cl
property label: clearance (mL/min/kg)
I only need the number, in mL/min/kg, no unit after it.

// clearance lookup, key: CC(C)(O)c1coc(S(=O)(=O)NC(=O)Nc2c3c(cc4c2CCC4)CCC3)c1 [MCC_000950_016, reference compound]
1.59

// clearance lookup, key: CC(C)n1ccc(S(=O)(=O)NC(=O)Nc2c3c(cc4c2CCC4)CCC3)n1
0.659

###

- tgt: NLRP3 inflammasome (Mus musculus, UniProt Q8R4B8)
- Sequence (Q8R4B8 whole entry): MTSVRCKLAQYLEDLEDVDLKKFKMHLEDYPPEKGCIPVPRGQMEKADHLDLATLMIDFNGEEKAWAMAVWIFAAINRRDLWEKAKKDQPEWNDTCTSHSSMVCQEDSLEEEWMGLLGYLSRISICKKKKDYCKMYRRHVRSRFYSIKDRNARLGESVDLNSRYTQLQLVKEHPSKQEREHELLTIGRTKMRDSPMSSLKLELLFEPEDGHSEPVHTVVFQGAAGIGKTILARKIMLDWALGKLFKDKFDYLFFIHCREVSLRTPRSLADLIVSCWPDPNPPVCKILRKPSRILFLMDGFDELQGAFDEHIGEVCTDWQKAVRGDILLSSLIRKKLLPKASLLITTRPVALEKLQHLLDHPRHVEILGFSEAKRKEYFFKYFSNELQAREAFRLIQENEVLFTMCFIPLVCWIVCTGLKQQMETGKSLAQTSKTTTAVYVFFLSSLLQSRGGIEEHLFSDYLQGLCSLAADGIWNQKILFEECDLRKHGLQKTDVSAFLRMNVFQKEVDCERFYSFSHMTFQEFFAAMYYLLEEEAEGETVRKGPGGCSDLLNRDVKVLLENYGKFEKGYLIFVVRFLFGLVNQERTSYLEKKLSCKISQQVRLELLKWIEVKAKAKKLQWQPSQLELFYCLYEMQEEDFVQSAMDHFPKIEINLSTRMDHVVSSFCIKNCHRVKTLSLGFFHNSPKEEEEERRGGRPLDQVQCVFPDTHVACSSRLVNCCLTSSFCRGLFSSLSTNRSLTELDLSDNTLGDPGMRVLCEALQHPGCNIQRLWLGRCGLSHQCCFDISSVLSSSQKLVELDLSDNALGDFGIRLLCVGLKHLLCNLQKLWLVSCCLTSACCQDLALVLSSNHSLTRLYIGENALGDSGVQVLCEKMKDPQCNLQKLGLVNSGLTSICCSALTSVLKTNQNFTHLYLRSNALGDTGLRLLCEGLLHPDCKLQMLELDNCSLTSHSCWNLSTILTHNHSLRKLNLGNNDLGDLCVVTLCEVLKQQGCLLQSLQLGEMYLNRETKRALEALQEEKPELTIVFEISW
- test: Inhibition of IL-1β release, NLRP3 inflammasome activation assay in BMDM
- Assay type: cell-based
- cond: inhibition of IL-1β release, class symbols, read-out: Avg. IL-1β IC50 Murine BMDM
property label: IC50

// IC50 lookup, key: CC(C)(O)c1coc(S(=O)(=O)NC(=O)Nc2cccc3c2OCCO3)c1
< 10 µM

// IC50 lookup, key: CC(C)c1cc(Cl)cc(C(C)C)c1NC(=O)NS(=O)(=O)c1cnc2ccsc2c1
< 1 µM

// IC50 lookup, key: CC(C)(O)c1coc(S(=O)(=O)NC(=O)Nc2cccc3c2OCC3)c1
< 50 µM

// IC50 lookup, key: C=C(C)c1coc(S(=O)(=O)NC(=O)Nc2c3c(cc4c2CCC4)CCC3)c1
< 1 µM

// IC50 lookup, key: CC(C)(O)c1coc(S(=O)(=O)NC(=O)Nc2c3ccccc3cc3ccccc23)c1
< 10 µM

// IC50 lookup, key: CC(C)n1cc(S(=O)(=O)NC(=O)Nc2c3c(cc4c2CCC4)CCC3)nn1
< 1 µM

// IC50 lookup, key: Nc1ccc(S(=O)(=O)NC(=O)Nc2c3c(cc4c2CCC4)CCC3)cc1
< 0.1 µM

// IC50 lookup, key: CC(C)c1cc(Cl)cc(C(C)C)c1NC(=O)NS(=O)(=O)c1ccc2cc(Cl)ccc2c1
< 0.1 µM

// IC50 lookup, key: O=C(Nc1c2c(cc3c1CCC3)CCC2)NS(=O)(=O)c1cccc(OC(F)(F)F)c1
< 1 µM

// IC50 lookup, key: O=C(Nc1c2c(cc3c1CCC3)CCC2)NS(=O)(=O)c1ccc2c(c1)CCC2
< 0.1 µM

// IC50 lookup, key: CC(C)(O)c1coc(S(=O)(=O)NC(=O)Nc2c3c(c(Br)c4c2OCC4)CCC3)c1
< 0.1 µM

// IC50 lookup, key: CCc1cc(Cl)cc(CC)c1NC(=O)NS(=O)(=O)c1ccn(C(C)C)n1
< 10 µM

// IC50 lookup, key: O=C(Nc1c2c(cc3c1CCC3)CCC2)NS(=O)(=O)c1ccc(CCNc2ccc([N+](=O)[O-])c3nonc23)cc1
< 1 µM

// IC50 lookup, key: CC(C)(O)c1coc(S(=O)(=O)NC(=O)Nc2c3c(cc4c2CCO4)CCC3)c1
< 0.1 µM

// IC50 lookup, key: CC(C)c1cc(Cl)cc(C(C)C)c1NC(=O)NS(=O)(=O)c1ccc2c(c1)CCCC2
< 0.1 µM

// IC50 lookup, key: Cc1oc(S(=O)(=O)NC(=O)Nc2c3c(cc4c2CCC4)CCC3)cc1C(C)(C)O
< 0.1 µM

// IC50 lookup, key: COc1ccc(OC)c(NC(=O)NS(=O)(=O)c2cc(C(C)(C)O)co2)c1
< 10 µM

// IC50 lookup, key: CC(C)(O)c1coc(S(=O)(=O)NC(=O)Nc2c(C3CC3)cc(Cl)c3c2CCC3)c1
< 0.1 µM

// IC50 lookup, key: COc1ccc2c(c1NC(=O)NS(=O)(=O)c1cc(C(C)(C)O)co1)CCC2
< 1 µM

// IC50 lookup, key: CCOC(=O)c1coc(S(=O)(=O)NC(=O)Nc2c3c(cc4c2CCC4)CCC3)c1
< 1 µM

// IC50 lookup, key: O=C(Nc1c2c(cc3c1CCC3)CCC2)NS(=O)(=O)c1cn2c(n1)CCC2
< 1 µM
